Assay: label from the status in PepcDB records
propertyName: protein production

INSERT INTO results (macromoleculesequence, recordedresult) VALUES
  ('MRVEVFPVEGLPLIKEGDDLAELISSRVRFEDGDVLVVCSTVISKAEGRIRRLEEFNPSERAKEIAARIGKPAEFVQAVLEESEEVLLDFPFLLVKAKFGNVCVNAGIDASNVEEGSLLLPPLDPDGSAEKLRRRILELTGKRVGVIITDTNGRCFRRGVVGFAIGISGVKAMKDWIGRKDLYGRELEVTVECVADEIAAFANLLMGEGGDGIPAVVVRGLNVAGEGSMEEIYRSEEEDVIRRCLKRCL', 'not failed'),
  ('MVPDWEEVLGLWRAGRYYEVHEVLEPYWLKATGEERRLLQGVILLAAALHQRRLGRPGLRNLRKAEARLEGLPCPLMGLDWRSLLQEARRRLGA', 'not failed'),
  ('MPHNLFSLFSQPLKPPLFEPGEPRFWDDPHISKSMLEAHLNQTHDGASRRNAEIEKTIRHLITSGFLKTGDQVLDLGCGPGLYSSKLCFEGMKVTGIDLSRRSIDYARAQAERDGQNIDYIYTDFFNIDYKETFDAVLQVYGEICTFSDEKRDLLLNLVHRALKDNGIFIFDVSTRELRMREGLKNRWYFSEGGFWRPGKHLVLEEGFDYPENDTWLNQYIIVDEDGTVKVYRLWLHDYSFETISQTLENNGFRVEKAWNNLSGELYQKGGDWIAIAAKKV', 'failed'),
  ('MSMKGISSAESDKLSRRISLTHKRNSEELDVFEAAVYFGYNEASSGDHGHTQKYGYNAAREENPRRWGILGGGRRISLDLPIRCSEQVYHLQQDHHEKHEVTTIKERLGNVRHKQPSSPGGKIASFLNSLFHQAGSKKNKSKSKSKTKPTDPEVEEEIPGGGWMRRRRRSSISHFFSSSRSTSTTTTTTASSSSKSLISSSSSGFRTPPPYLNTPTKNYKQFLNYTSATKQVGEEETKTNKEYSWLDEKLKVMESLSENQRIWSDDEDIDDDRRIKREGEDDGMESDSSSDLFELQNYELSRGGLPVYETTNVANINKTHI', 'failed'),
  ('RAKALQKVKEAITLHGGQTILSTGITGDDARLAKAVCEAGVKLLEPNHPALALARGHKGVSNMHAAEQIRHEITNSQMAEAVHGVRNVVPDDIFITVGIAGGFTETLPVPLSEKEILEIARAGADGLHTHKSDWDDLQDIVNLAHQYGLTVDAYIGHPDDLHTFGIPARTPEEVASVAKRMQDIGVDMIGLMTGMSYEGVAAGDIPQMIKDRLRALVGAVDVPTLAEGGINLANAKAFKDTGVNILVVGTAI', 'failed'),
  ('MASYAELFDIGEDFAAFVGHGLATEQGAVARFRQKLESNGLPSALTERLQRIERRYRLLVAGEMWCPDCQINLAALDFAQRLQPNIELAIISKGRAEDDLRQRLALERIAIPLVLVLDEEFNLLGRFVERPQAVLDGGPQALAAYKAGDYLEHAIGDVLAIIEGAAR', 'not failed');

----------
Experiment: label from the status in PepcDB records
propertyName: protein production

INSERT INTO results (macromoleculesequence, propertyname, recordedresult) VALUES
  ('MCLPIHVKYDWFCRLCKTGRTLRPTSLQRGRAMASLTLRHLAGNTWLIPAPAAIGVYVRNGRAVLIDSGNDEEAGRQILKLLNGQGWTLDLIVNTHSNADHIGGNAFLQKKTGCRVAATVPEAAFIANPILEPSFLYGGYPVKALRNKFLMAKPSTVTDIIEAIGPILDTGLEAVPLAGHFFGMIGIRTPDGVLFAADSLFPETILAKYPIFYLYDIREHLASLQRLRELEAAIYVPSHGAPSPEILPLIEANEQRVRQTVSFVESCCTDAPASFETVLERVCGEYGIVLDPNQYVLVGNTIRSILAFLSEEGRLAMIFDGGRLLWGTAADQREA', 'protein production', 'failed'),
  ('MTSDGATSTSAAAAAAAAAAARRKPSWRERENNRRRERRRRAVAAKIYTGLRAQGDYNLPKHCDNNEVLKALCVEAGWVVEEDGTTYRKPLPGEIAGTSSRVTPYSSQNQSPLSSAFQSPIPSYQVSPSSSSFPSPSRGEPNNNMSSTFFPFLRNGGIPSSLPSLRISNSCPVTPPVSSPTSKNPKPLPNWESIAKQSMAIAKQSMASFNYPFYAVSAPASPTHRHQFHTPATIPECDESDSSTVDSGHWISFQKFAQQQPFSASMVPTSPTFNLVKPAPQQMSPNTAAFQEIGQSSEFKFENSQVKPWEGERIHDVGMEDLELTLGNGKARG', 'protein production', 'failed');
